Particulars: 298.15 K, Drop volume
We use 40 mN/m as the dividing line for surface tension liquid-gas: on or above the line is rule met, below is rule not met.

Solved entries (count: 2):
compound=O label="rule met"
compound="CCCCCCCCOS(=O)(=O)[O-].CCn1cc[n+](C)c1 [1-ethyl-3-methylimidazolium octyl sulfate]" label="rule not met"

Incoming: Does the reported surface tension liquid-gas for CCO fall at or above the 40 mN/m mark?
Outgoing: rule not met

Incoming: Test whether the compound CCCCCCOS(=O)(=O)[O-].CC[n+]1ccn(C)c1 [3-ethyl-1-methyl-1H-imidazolium hexyl sulfate] records surface tension liquid-gas of 40 mN/m or higher.
Outgoing: rule not met

Incoming: Say whether CCOS(=O)(=O)[O-].CCn1cc[n+](C)c1 [1-ethyl-3-methylimidazolium ethyl sulfate] shows surface tension liquid-gas of 40 mN/m or more.
Outgoing: rule met
